Hello, the source for this data is patent US9233961B2, in case you need it.

Here the recorded log10(EC50) is given for each entry.
Tested on: Leishmania donovani axenic amastigote parasites
test.description: Leishmania donovani axenic amastigote proliferation assay
Format: cell-based
condition.parameters: axenic amastigotes in vitro, read-out: L. donovani amastigotes EC50
property.label: log10(EC50) (log10 of the value in µM)

{"compound": "Cc1cnc2nc(-c3cc(NC(=O)c4ccc[nH]4)ccc3Cl)[nH]c2c1", "log10(EC50)": 0.80}
{"compound": "Nc1ncc(-c2cnc3nc(-c4cc(NC(=O)c5ccco5)ccc4Cl)[nH]c3c2)cn1", "log10(EC50)": -0.32}
{"compound": "CCOC(=O)Nc1ccc(Cl)c(-c2nc3ncc(-c4ccc(NC)cc4)cc3[nH]2)c1", "log10(EC50)": 0.08}
{"compound": "CNC(=O)Nc1ccc(-c2cnc3nc(-c4cc(NC(=O)c5ccco5)ccc4Cl)[nH]c3c2)cc1", "log10(EC50)": 0.26}
{"compound": "O=C(Nc1ccc(Cl)c(-c2nc3ncncc3[nH]2)c1)c1ccco1", "log10(EC50)": 0.62}
{"compound": "O=C(Nc1ccc(Cl)c(-c2nc3ncc(-c4ccc5c(c4)OCO5)cc3[nH]2)c1)c1ccco1", "log10(EC50)": 0.42}
{"compound": "CC(C)OC(=O)Nc1ccc(Cl)c(-c2nc3ncc(-c4ccccc4N)cc3[nH]2)c1", "log10(EC50)": -0.59}
{"compound": "CNC(=O)c1ccc(-c2cnc3nc(-c4cc(NC(=O)c5ccco5)ccc4Cl)[nH]c3c2)cn1", "log10(EC50)": -0.65}
{"compound": "O=C(Nc1ccc(Cl)c(-c2nc3ncc(-c4ccc(CN5CCOCC5)cc4)cc3[nH]2)c1)c1ccco1", "log10(EC50)": 0.32}
{"compound": "COC(=O)Nc1ccc(Cl)c(-c2nc3ncc(C)cc3[nH]2)c1", "log10(EC50)": 1.27}
{"compound": "CC(C)OC(=O)Nc1ccc(-c2cnc3nc(-c4cc(NC(=O)c5ccco5)ccc4Cl)[nH]c3c2)cc1", "log10(EC50)": -0.75}
{"compound": "CCCc1cnc2nc(-c3cc(NC(=O)c4ccco4)ccc3Cl)[nH]c2c1", "log10(EC50)": 0.97}
{"compound": "Cc1cnc2nc(-c3cc(NC(=O)OC(C)C)ccc3Cl)[nH]c2c1", "log10(EC50)": 0.41}
{"compound": "CC(C)OC(=O)Nc1ccc(Cl)c(-c2nc3ncc(C#N)cc3[nH]2)c1", "log10(EC50)": 0.16}
{"compound": "Cc1cnc2nc(-c3cc(NC(=O)c4cncc(Cl)n4)ccc3Cl)[nH]c2c1", "log10(EC50)": 0.08}
{"compound": "COc1ccc(-c2cnc3nc(-c4cc(NC(=O)c5ccco5)ccc4Cl)[nH]c3c2)c(OC)n1", "log10(EC50)": 0.05}
{"compound": "Nc1ccc(-c2cnc3nc(-c4cc(NC(=O)c5ccco5)ccc4Cl)[nH]c3c2)cc1", "log10(EC50)": -0.59}
{"compound": "Cc1cnc2nc(-c3cc(NC(=O)c4cccnc4)ccc3Cl)[nH]c2c1", "log10(EC50)": 0.94}
{"compound": "Cc1cnc2nc(-c3cc(NC(=O)C(c4ccc(Cl)cc4)C(C)C)ccc3Cl)[nH]c2c1 (stereo not drawn)", "log10(EC50)": 1.14}
{"compound": "O=C(Nc1ccc(Cl)c(-c2nc3ncc(C(F)(F)F)cc3[nH]2)c1)C1CCCC1", "log10(EC50)": 1.24}
